- system.under.test: EGFR Del19/T790M/C797S (Homo sapiens, UniProt P00533, C797S/DEL746-750/T790M)
- Sequence (P00533 with tags, fused parts or gaps DEL746-750/T790M/C797S): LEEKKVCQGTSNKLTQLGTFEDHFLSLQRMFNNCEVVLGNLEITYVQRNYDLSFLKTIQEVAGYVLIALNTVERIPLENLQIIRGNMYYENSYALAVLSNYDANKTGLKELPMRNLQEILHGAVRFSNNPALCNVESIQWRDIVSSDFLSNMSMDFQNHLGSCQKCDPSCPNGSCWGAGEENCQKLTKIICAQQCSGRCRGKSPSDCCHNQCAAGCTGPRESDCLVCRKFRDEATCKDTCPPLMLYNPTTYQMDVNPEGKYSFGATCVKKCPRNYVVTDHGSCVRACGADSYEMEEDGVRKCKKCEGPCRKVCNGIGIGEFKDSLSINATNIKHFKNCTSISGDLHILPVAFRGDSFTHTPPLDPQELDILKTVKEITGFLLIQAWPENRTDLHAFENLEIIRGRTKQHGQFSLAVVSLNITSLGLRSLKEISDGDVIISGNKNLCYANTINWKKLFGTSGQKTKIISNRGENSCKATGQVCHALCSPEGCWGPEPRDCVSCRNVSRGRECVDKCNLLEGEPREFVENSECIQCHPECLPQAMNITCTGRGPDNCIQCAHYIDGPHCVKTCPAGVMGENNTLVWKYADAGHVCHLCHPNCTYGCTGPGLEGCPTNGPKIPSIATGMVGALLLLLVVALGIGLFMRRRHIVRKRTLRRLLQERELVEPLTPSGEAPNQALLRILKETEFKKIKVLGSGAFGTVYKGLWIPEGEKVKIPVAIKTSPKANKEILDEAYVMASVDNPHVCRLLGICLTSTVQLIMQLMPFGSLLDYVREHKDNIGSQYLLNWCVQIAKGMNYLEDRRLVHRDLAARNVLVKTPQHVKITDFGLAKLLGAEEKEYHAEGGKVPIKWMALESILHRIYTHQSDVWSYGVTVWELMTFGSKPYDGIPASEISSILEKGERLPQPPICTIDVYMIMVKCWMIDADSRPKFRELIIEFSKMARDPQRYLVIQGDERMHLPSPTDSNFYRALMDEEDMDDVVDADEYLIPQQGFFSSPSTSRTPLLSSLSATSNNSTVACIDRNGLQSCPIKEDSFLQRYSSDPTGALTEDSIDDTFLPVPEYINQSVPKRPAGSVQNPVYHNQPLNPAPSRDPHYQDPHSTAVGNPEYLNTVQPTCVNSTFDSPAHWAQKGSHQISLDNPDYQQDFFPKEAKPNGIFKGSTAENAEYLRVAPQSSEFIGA
- assay: Biochemical EGFR kinase inhibition assay (Lance Ultra TR-FRET), triple mutant del19/T790M/C797S
- run.conditions: IC50 Del19/T790M/C797S (nM), 100 μM ATP
- Experimental: Biochemical EGFR kinase assays were conducted using Lance Ultra time-resolved fluorescence resonance energy transfer (TR-FRET) technology from Perkin-Elmer. […] Each kinase reactions were incubated at room temperature for 1 hour and then stopped by the addition of 4 μL of stop solution (10 mM EDTA). […] After 60 minutes incubation at room temperature the LANCE signal was measured on an EnVision Multilabel Reader (Perkin-Elmer). […]
True if IC50 is below 1 nM. False if not; exact matches included in False.

Previously resolved entries follow.
> print(dat)
                                        smi  label.class
1  Cc1nc(C#Cc2cnc(Nc3ccnc(-c4cnn(S(=O)(=O)C5CC5)c4)n3)cc2N2CCC(O)CC2)cs1        False
2  O=S(=O)(C1CC1)n1cc(-c2nccc(Nc3cc(N[C@H]4CCC[C@H](O)C4)c(C#Cc4ccsc4)cn3)n2)cn1        False
3  CC(C)Nc1cc(Nc2ccnc(-c3cnn(S(=O)(=O)C4CC4)c3)n2)ncc1C#CCCCC(=O)N1CCOCC1        False
4  Cn1cc(C#Cc2cnc(Nc3ccnc(-c4cnn(S(=O)(=O)C5CC5)c4)n3)cc2N2CC[C@@H](O)C2)cn1         True
5  CN(C)Cc1cccc(C#Cc2cnc(Nc3ccnc(-c4cnn(S(=O)(=O)C5CC5)c4)n3)cc2N2CCC(C)(CO)CC2)c1         True
6  O=S(=O)(C1CC1)n1cc(-c2nccc(Nc3cc(N[C@@H]4CCC[C@H](O)C4)c(C#Cc4cnn(CCF)c4)cn3)n2)cn1        False

stdin: Please determine if "CN(C)CCCn1cc(C#Cc2cnc(Nc3ccnc(-c4cnn(S(=O)(=O)C5CC5)c4)n3)cc2N2CCC(F)(CO)CC2)cn1" is below 1 nM in terms of IC50.
stdout: True

Recorded values, source patent US11981658B2.
